Every entry's value here was drawn from paper PMC5540273.

Tested on: EPHA8
Details: concentration: 1 μM, replicates: in singlicate; n = 1;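 also: KINOMEscan kinase panel screen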
Respond with t for %Inh values of 7% and above, f for values below.

Exercise: For this molecule, is measured %Inh 7% or higher? Cc1ccc(C(=O)N2CC[C@@H](O)C2)cc1-n1c(C)cc(OCc2ccc(F)cc2F)c(Br)c1=O
Solution: t

Exercise: Hello, I need to know if Cc1ccc(S(=O)(=O)Nc2ccc(Nc3nccc(Nc4cccc5[nH]ncc45)n3)cc2)cc1 has measured %Inh not below 7%. Thanks!
Solution: t

Exercise: Hi, just wondering whether Cl.Cl.NCC(NC(=O)c1cc(-c2ccccc2)c(-c2ccnc3[nH]ccc23)s1)c1ccccc1 (stereo not drawn) shows %Inh of 7% or higher.
Solution: t

Exercise: Reported %Inh reaches at least 7% for Oc1cc(Nc2ccnc3cc(I)ccc23)ccc1F ?
Solution: t

Exercise: # bool: %Inh of O=C(Nc1n[nH]c2cc(-c3ccoc3)ccc12)C1CC1 >= 7%
Solution: t

Exercise: Could you verify whether the entry O=C(Nc1cccc(Oc2ccc3nc(NC(=O)C4CC4)cn3n2)c1)c1ccccc1C(F)(F)F shows %Inh of no less than 7%?
Solution: t

Exercise: Is reported %Inh greater than or equal to 7% here: CC(C)(C)c1ccc2nccc(Nc3cccc(O)c3)c2c1
Solution: t

Exercise: I'd appreciate it if you could say whether CC(=O)N1CCN(c2ccc(Nc3nccc(-c4sc(C(C)C)nc4-c4cccc(NS(=O)(=O)c5cccc(Cl)c5)c4)n3)cn2)CC1 has %Inh at least equal to 7%.
Solution: t

Exercise: # bool: %Inh of COCCOCCOc1cc2ncc3c4ccc(C#N)cc4[nH]c3c2cc1OC >= 7%
Solution: t

Exercise: For this molecule, is measured %Inh 7% or higher? Nc1ncc(-c2ccc3nccc(-c4ccncc4)c3c2)cc1S(=O)(=O)N1CCOCC1
Solution: t

Exercise: # bool: %Inh of C[C@@H]1CC[C@@H](C(=O)Nc2ccccc2)CN1c1cc(-c2ccc3c(N)n[nH]c3c2)nc(N)n1 >= 7%
Solution: f

Exercise: Could you tell me if the measured %Inh of COc1ccc(Nc2nccc(N3CCC(NC(=O)Nc4cccc(OC)c4)C3)n2)cc1 (stereo not drawn) reaches 7% or more?
Solution: t

Exercise: Record Clc1ccc(-c2nn3ncccc3c2-c2ccnc(Nc3ccc4c(c3)OCCO4)n2)cc1 ; criterion: %Inh no lower than 7%. Met?
Solution: f

Exercise: Hi team, for COC(=O)Nc1nc2ccc(Oc3ccc(NC(=O)Nc4cc(C(F)(F)F)ccc4F)cc3)cc2n1C.Cl , is the recorded %Inh at or above 7%?
Solution: t

Exercise: Reported %Inh at or above 7%? O=c1[nH]cc(-c2ccc(N3CCOCC3)cc2)c2sc(-c3cn[nH]c3)cc12
Solution: t

Exercise: In plain terms: is recorded %Inh at least 7% for O=C(Nc1n[nH]c2nc(-c3ccc(O)cc3)ccc12)C1CC1 ?
Solution: f

Exercise: Given the entry COc1ccc(-c2coc3ccc(-c4nnc(SCc5ccc(OC)c(C(F)(F)F)c5)o4)cc23)cc1 , answer whether its %Inh meets or surpasses 7%.
Solution: t

Exercise: Test whether the molecule O=C(Nc1cccc(-c2nn3ccccc3c2-c2ccnc(Nc3cccc(C(F)(F)F)c3)n2)c1)c1c(F)cccc1F records %Inh of 7% or higher.
Solution: f

Exercise: Quick check, %Inh >= 7%? CCn1c(-c2nonc2N)nc2c(C#CC(C)(C)O)nc(OC[C@H](N)c3ccccc3)cc21
Solution: f

Exercise: Is %Inh for CCc1ccc(-c2ccc3c(c2)-c2c(cnn2C)S(=O)(=O)N3C)cc1 at or above 7%?
Solution: f

Exercise: Hi, just wondering whether c1ccc(-c2cnc3nccnn23)cc1 shows %Inh of 7% or higher.
Solution: f

Exercise: Does %Inh meet or surpass 7% for CSc1cccc2c(-c3ccncn3)c(-c3ccc(F)cc3)nn12 ?
Solution: t

Exercise: Is %Inh for COc1cccc(NC(=O)NC2CCN(c3ccnc(Nc4cc(OC)c(OC)c(OC)c4)n3)C2)c1 (stereo not drawn) at or above 7%?
Solution: f

Exercise: Confirm if %Inh reported for the molecule Cl.Cl.NCC(NCc1ccc(-c2ccnc3[nH]ccc23)s1)c1ccccc1 (stereo not drawn) is 7% or above.
Solution: f

Exercise: Decide: is the reported value of %Inh for C[C@@H](Oc1cc(-n2cnc3cc(-c4ccnc(NCCS(C)(=O)=O)c4)ccc32)sc1C(N)=O)c1ccccc1Cl equal to or greater than 7%?
Solution: t

Exercise: Decide: %Inh of c1ccc(-c2n[nH]cc2Nc2ccnc3ccccc23)nc1 >= 7%?
Solution: t

Exercise: Is %Inh for CN1CCN(Cc2cccc(-c3ccc4c(Nc5ccc(Oc6ccccc6)cc5)ccnc4c3)c2)CC1 at or above 7%?
Solution: f

Exercise: Has CC(=O)Nc1nc2cnc(Nc3cc(NC(=O)c4cccc(C5(C#N)CC5)c4Cl)ccc3C)nc2s1 a recorded %Inh greater than or equal to 7%?
Solution: t

Exercise: Textbook exercise: given the entry CCn1c(-c2nonc2N)nc2c(C#CC(C)(C)O)ncc(OCCCCN)c21.O=C(O)C(F)(F)F.O=C(O)C(F)(F)F , state whether its %Inh is greater than or equal to 7%.
Solution: f

Exercise: Does the molecule COc1cccc(-c2ccc3c(NC(=O)C4CC4)n[nH]c3n2)c1 have recorded %Inh that is 7% or more?
Solution: t

Exercise: Please check the record COC(=O)Nc1nc2cc(Oc3ccc(NC(=O)Nc4cc(C(F)(F)F)ccc4F)cn3)ccc2[nH]1.Cl.Cl and state if its %Inh is at or above 7%.
Solution: t

----------
Test system: PAK4
Conditions: concentration: 1 μM, replicates: in singlicate; n = 1
Observable: %Inh

Exercise: Requested read-out: %Inh. Entry: CC(=O)N1CCN(c2ccc(Nc3nccc(-c4sc(C(C)C)nc4-c4cccc(NS(=O)(=O)c5cccc(Cl)c5)c4)n3)cn2)CC1
Solution: 0%

Exercise: Quick one: %Inh of Nc1ncc(-c2cccnc2)c2scc(-c3ccc4c(c3)CCN4C(=O)Cc3ccccc3)c12 ?
Solution: 18%

Exercise: Data request, read-out %Inh, for COc1cccc(C2=C(Nc3ccc(Cl)c(C(=O)O)c3)C(=O)NC2=O)c1
Solution: 0%

Exercise: Returns the measured %Inh for the input molecule. Input: Nc1ncc(-c2ccc3nccc(-c4ccncc4)c3c2)cc1S(=O)(=O)N1CCOCC1
Solution: 0%

Exercise: What value of %Inh has been reported for the following molecule? COc1cc(Nc2nccc(-c3c(-c4cccc(NC(=O)c5c(F)cccc5F)c4)nn4ccccc34)n2)cc(OC)c1OC
Solution: 9%

Exercise: Return reported %Inh; argument: O=c1[nH]cc(-c2ccc(N3CCOCC3)cc2)c2sc(-c3cn[nH]c3)cc12
Solution: 0%

Exercise: %Inh for Fc1ccc(-c2ncn(C3CCNCC3)c2-c2ccnc(Oc3ccc(-c4ccccc4)cc3)n2)cc1 ?
Solution: 14%

Exercise: Request the reported %Inh associated with CN1CCN(Cc2cccc(-c3ccc4c(Nc5ccc(Oc6ccccc6)cc5)ccnc4c3)c2)CC1
Solution: 0%

Exercise: Reported %Inh, molecule Cc1ccc(C(=O)Nc2ccc(Nc3ccnc4cc(-c5nccs5)ccc34)cc2O)cc1.Cl : ____
Solution: 1%

Exercise: Field request: %Inh | item: C[C@@H]1CC[C@@H](C(=O)Nc2ccccc2)CN1c1cc(-c2ccc3c(N)n[nH]c3c2)nc(N)n1
Solution: 0%

Exercise: # lookup: %Inh of Cl.Cl.NCC(NC(=O)c1cc(-c2ccccc2)c(-c2ccnc3[nH]ccc23)s1)c1ccccc1 (stereo not shown)
Solution: 0%

Exercise: Which %Inh value is on record for Cl.Cl.NCC(C(=O)Nc1cc(Br)c(-c2ccnc3[nH]ccc23)s1)c1ccccc1 (stereo not shown) ?
Solution: 0%

Exercise: So what does the record say about %Inh for O=C(Nc1n[nH]c2cc(-c3ccoc3)ccc12)C1CC1 ?
Solution: 0%

Exercise: Fill in the blank: the reported %Inh of CN(C)Cc1ccc(-c2ccc3c(Nc4ccc(Oc5ccccn5)cc4)ccnc3c2)o1 is ____.
Solution: 0%

Exercise: If you can, please state the reported %Inh value of O=C(NC1CCN(c2ccnc(Nc3ccc(F)cc3)n2)C1)c1cc2ccccc2s1 (stereo not shown) .
Solution: 0%

Exercise: Which %Inh is listed for CC(C)(C)c1ccc2nccc(Nc3cccc(O)c3)c2c1 ?
Solution: 23%

----------
Tested on: NEK4
Details: concentration: 1 μM, replicates: in singlicate; n = 1
For each of the compounds below, state its %Inh.
Number in %, nothing else.

Exercise: Requested read-out: %Inh. Entry: COc1ccc(Nc2nccc(NCCNC(=O)c3cc4ccccc4s3)n2)cc1
Solution: 14

Exercise: Any idea what %Inh was measured for O=C(Nc1n[nH]c2cc(-c3ccoc3)ccc12)C1CC1 ?
Solution: 1

Exercise: Quick one: %Inh for COC(=O)Nc1nc2ccc(Oc3ccc(NC(=O)Nc4cc(C(F)(F)F)ccc4F)cc3)cc2n1C.Cl ?
Solution: 0

Exercise: Which measured %Inh value corresponds to Cc1ccc(C(=O)N2CC[C@@H](O)C2)cc1-n1c(C)cc(OCc2ccc(F)cc2F)c(Br)c1=O ?
Solution: 0

Exercise: Entry Cc1ccc(C(=O)Nc2ccc(Nc3ccnc4cc(-c5nccs5)ccc34)cc2O)cc1.Cl has what %Inh?
Solution: 3

Exercise: For COc1cccc(C(=O)Nc2cccc(Oc3ccc4nc(NC(=O)C5CC5)cn4n3)c2)c1 , what is its reported %Inh?
Solution: 0

Exercise: Return reported %Inh; argument: COc1cc2c(cc1OCCN1CCNCC1)ncc1c3ccc(C#N)cc3[nH]c21
Solution: 100

Exercise: Using the record for CCn1c(-c2nonc2N)nc2c(C#CC(C)(C)O)ncc(OCCCCN)c21.O=C(O)C(F)(F)F.O=C(O)C(F)(F)F , report its %Inh.
Solution: 34

Exercise: Name the reported %Inh value associated with the compound Nc1ncc(-c2cccnc2)c2scc(-c3ccc4c(c3)CCN4C(=O)Cc3ccccc3)c12
Solution: 17

Exercise: Name the reported %Inh value associated with the compound Cl.Cl.NCC(C(=O)Nc1cc(Br)c(-c2ccnc3[nH]ccc23)s1)c1ccccc1 (centres unmarked)
Solution: 15

Exercise: Entry COc1cccc(-c2ccc3c(NC(=O)C4CC4)n[nH]c3n2)c1 : reported %Inh = ?
Solution: 0
